test system: SF-268 CNS; test: NCI tumour cell line growth inhibition, 48 h
endpoint-name: TGI

Reference set, count: 2
CCCCc1ccc(Nc2nc(Cl)c3ncn(C4CC(Oc5ccc(C)cc5)C(COc5ccc(C)cc5)O4)c3n2)cc1 (stereo not drawn)	> 100 µM
c1ccc([P+](c2ccccc2)(c2ccccc2)c2ccc(-c3ccc([P+](c4ccccc4)(c4ccccc4)c4ccccc4)cc3)cc2)cc1	> 100 µM

Below are 8 molecules. Give each one its TGI.
1. Cc1ccc(S(=O)(=O)Oc2nc3nc4ccccc4nc3nc2OS(=O)(=O)c2ccc(C)cc2)cc1
2. CC1(C=O)CCC23COC4(CCC5C6(C)CCC(OC7OCC(OC8OC(CO)C(O)C(OC9OC(CO)C(O)C(O)C9O)C8OC8OCC(O)C(O)C8O)C(O)C7OC7OC(CO)C(O)C(O)C7O)C(C)(C)C6CCC5(C)C4(C)CC2O)C3C1 (stereo not drawn)
3. N[C@@H](CSSC[C@H](N)C(=O)N1CCn2cc(-c3ccccc3)nc2[C@@H]1CC1CCCCC1)C(=O)N1CCn2cc(-c3ccccc3)nc2[C@@H]1CC1CCCCC1
4. Fc1ccc(-c2nn3c(COc4ccc(Cl)cc4Cl)nnc3s2)cc1Oc1ccccc1
5. COC(=O)/C=C1\CCCN1CCc1cc2c(cc1CC#N)OCO2
6. C=C1CC(C)(COc2ccc3c(C)cc(=O)oc3c2)OC1=O (stereo not drawn)
7. Cc1c(N=Nc2ccc(Cl)cc2)c(C)n(C2OC(CO)C(O)C(O)C2O)c(=S)c1C#N (stereo not drawn)
8. CN1CCc2cc3c4cc2C1Cc1ccc(cc1)Oc1cc(ccc1O)CC1c2c(cc(O)c(c2O4)O3)CCN1C (stereo not drawn)

> 100 µM
2.47 µM
2.46 µM
87.8 µM
> 100 µM
20.2 µM
52.1 µM
6.18 µM

Below are 3 molecules. Give each one its TGI.
1. COC(=O)c1ccc(/C=C2\Oc3cc(O)ccc3C2=O)cc1
2. Cn1cc(C2=C(c3c(S(C)=O)n(C)c4ccccc34)C(=O)NC2=O)c2ccccc21 (stereo not drawn)
3. COC(=O)C1(C)CCCC2(C)c3cc(OC)ccc3C(=O)C(Br)C12 (stereo not drawn)

> 100 µM
> 25 µM
> 10 µM

Below are 5 molecules. Give each one its TGI.
1. COc1ccc2c(c1)N(CCO)C1=C(C(=O)OC1)C2c1ccc(OC)c(OC)c1 (stereo not drawn)
2. NCCNCCCNC(=O)c1cc(-c2ccccc2)nc2ccccc12
3. CCSc1nnc(-c2ccccc2)nc1Cc1ccc(OC)cc1
4. CCCCCCCCCCCC(=O)OC(COC(N)=O)COc1ccc(Cl)cc1 (stereo not drawn)
5. O=C(NNC(=O)c1ccccc1O)c1ccco1

1. > 100 µM
2. > 100 µM
3. > 100 µM
4. 42.5 µM
5. > 100 µM

* * *

test system: 786-0 renal; assay: NCI tumour cell line growth inhibition, 48 h; in the data active = GI50 below about 0.43 µM; inactive = the rest
Please reply with one of these outcomes: class 1 (active), class 0 (inactive)

Example results:
COc1ccc(-c2nc3sccn3c2-c2ccnc(NCCCNS(=O)(=O)c3ccc(F)cc3)n2)cc1	class 0
Oc1cccc(-c2nc(-c3ccccc3)[nH]c2-c2ccncc2)c1	class 0
COc1ccc2nc3cc(Cl)ccc3c(Nc3cc(C(C)C)c(O)cc3C)c2c1	class 0
COc1cc(-c2nn(-c3cccc(NC(=O)CCN4CCN(C)CC4)c3)cc2-c2ccncc2)ccc1Cl	class 0
CCc1ccc([O-])c(C=NCCCN(C)CCCN=Cc2cc(C)ccc2[O-])c1.[Co+3].[N-]=[N+]=[N-]	class 0
CN1CCN(c2ccc(Nc3ncc4cc5n(c4n3)C3(CCCCC3)CNC5=O)nc2)CC1	class 0

Assay outcome for CCN1C(=O)N(CC)C2C1NN=c1s/c(=C\c3ccc(OC)cc3)c(=O)n12 (centres undefined) : what was it?
class 0

Assay outcome for O=C1NC(=N[C@H](CO)c2ccccc2)S/C1=C\c1ccc2ncccc2c1 : what was it?
class 0

Assay outcome for Cc1cn2c(/C=C3/C(=O)Nc4ccc(Cl)cc43)c(C)nc2s1 : what was it?
class 1

* * *

Could you please report measured TGI for the items listed next?
test system: KM12 colon; experiment: NCI tumour cell line growth inhibition, 48 h

Reference set, count: 3
OCc1ccc(N(Cc2ccc(F)cc2)CC2CCC2)cc1Cl	27.8 µM
NC(=O)c1ncn(Cc2ccccc2)c1CNC(N)=S	> 100 µM
ClCCCCOC1CCCCO1 (centres undefined)	> 100 µM

# next compound below
TGI in this record for CC1(C)CC(N2CCN(C3CC(C)(C)NC(C)(C)C3)CC2)CC(C)(C)N1 : > 100 µM

* * *

system: 786-0 renal; experiment: NCI tumour cell line growth inhibition, 48 h
endpoint-name: TGI

Reference set, count: 5
O=C(Nc1ncc([N+](=O)[O-])s1)c1ccccc1O	> 100 µM
COc1c(Br)cc(/C=C(\C#N)c2ccccn2)cc1Br	25.6 µM
CC(=O)N(CCCCNC(=O)C(F)(F)F)CCCNC(=O)C(F)(F)F	> 100 µM
Oc1cccc(-c2nc(-c3ccccc3)[nH]c2-c2ccncc2)c1	> 25 µM
C[n+]1c2ccccc2c(CNC(CS)C(=O)O)c2ccccc21 (stereo not given)	> 100 µM

Below are 4 molecules. Give each one its TGI.
1. Cn1cnc([N+](=O)[O-])c1Sc1nc2ccc([N+](=O)[O-])cc2[nH]1
2. O=c1c2cc(S(=O)(=O)Nc3ccc(Cl)cc3Cl)ccc2ncn1NS(=O)(=O)c1cccc2ccccc12
3. O=C(O)COc1ccc(C(=O)/C(SS/C(C(=O)c2ccc(OCC(=O)O)c(Cl)c2Cl)=C2\C=C(c3ccccc3Cl)SS2)=C2/C=C(c3ccccc3Cl)SS2)c(Cl)c1Cl
4. N#CC1C(=O)NC(=O)C1=O (stereo not given)

1. > 100 µM
2. > 100 µM
3. 36.7 µM
4. > 100 µM

The measured TGI that N#Cc1cn(-c2c3ccccc3nc3ccccc23)c(=O)[nH]c1=O showed for 786-0 renal is 13.5 µM

* * *

test system: COLO 205 colon; assay: NCI tumour cell line growth inhibition, 48 h
Could you please report measured GI50 for the items listed next?

FC(F)(F)c1ccc(NCc2nc3ccccc3[nH]2)cc1	19.2 µM
COc1ccc(-c2nc3sccn3c2-c2ccnc(NCCCNS(=O)(=O)c3ccc(F)cc3)n2)cc1	1.89 µM

# next compound below
The measured GI50 that COc1cc(NC(=O)c2ccccc2Nc2ccnc(C(F)(F)F)c2)cc(OC)c1OC showed for COLO 205 colon is 41.9 µM

* * *

test system: M14 melanoma; test: NCI tumour cell line growth inhibition, 48 h
endpoint-name: TGI

COc1ccc2c(c1)CCc1c-2n(CCN2CCOCC2)c2ccc(OC)cc12	> 100 µM

Below are 2 compounds. Give each one its TGI.
1. CC12CC(=O)C3C(CCC4=CC(=O)CCC43C)C1CC=C2CC(=O)O (stereo not drawn)
2. COc1cc([N+](=O)[O-])ccc1NC(=O)c1cccc([N+](=O)[O-])c1O

["> 100 µM", "> 100 µM"]

Below are 5 compounds. Give each one its TGI.
1. CNc1ncnc2c1cnn2CCCCO
2. CSc1ccc(/C=C2\N=C(c3ccccc3)N(/N=C3\C(=O)Nc4ccccc43)C2=O)cc1
3. c1c2c(cc3c1OCO3)-c1cc3ccc4c(c3c[n+]1CC2)OCO4
4. COc1ccc(Nc2nc3ccc(C(F)(F)F)cc3nc2C(=O)O)cc1
5. O=C(CSc1nc2ccc(I)cc2c(=O)n1Cc1ccccc1)NN1C(=O)c2ccccc2C1=O

> 100 µM
> 100 µM
5.9 µM
> 100 µM
> 100 µM

Below are 7 compounds. Give each one its TGI.
1. COC(=O)N/N=C(\c1ccccc1)c1ccc(OC)cc1
2. CCOC(=O)c1cc(-c2ccccc2)[nH]c1N/N=C/c1c(Cl)cccc1Cl
3. CC(C)COC(c1ccc2c(c1)OCO2)C(C)Br (stereo not drawn)
4. O=C(O)c1nc2ccccc2nc1NCc1ccc(F)cc1
5. C[N+](C)(C)CCN[N+]1(C)CCCc2ccccc21 (stereo not drawn)
6. NNc1ncc2c(n1)-c1ccccc1OC2
7. CNN1C(=O)c2c(C)c(C)c(C#N)c(N)c2C1=O

1. > 100 µM
2. 25.3 µM
3. 50.9 µM
4. > 100 µM
5. > 100 µM
6. > 100 µM
7. > 100 µM

Below are 6 compounds. Give each one its TGI.
1. Cn1cc(C2=C(c3c(S(C)=O)n(C)c4ccccc34)C(=O)NC2=O)c2ccccc21 (stereo not drawn)
2. CCSc1nc(-c2cccs2)nc2ccc(I)cc12
3. Nc1nc(OCC2CCCCC2)c2[nH]cnc2n1
4. CCCc1n(Cc2ccc3ccccc3n2)cc[n+]1Cc1ccc2ccccc2n1
5. OCCCCCCCCCCCOc1ccc(C2OCC3(CC=CCC3)CO2)cc1 (stereo not drawn)
6. COc1ccc(C(=C2C(=O)N(c3ccccc3)C(=O)C2=C(C)C)c2ccc(OC)cc2)cc1

1: > 25 µM; 2: > 100 µM; 3: 57.8 µM; 4: 13.5 µM; 5: 26 µM; 6: 13.5 µM

Below are 2 compounds. Give each one its TGI.
1. Cc1[nH]n(-c2cccc(Cl)c2)c(=O)c1/C=C1\C=c2ccccc2=CC1=O
2. COc1cc2c(cc1OC)C(=O)/C(=C/c1cc(Cl)cc(Cl)c1)C2

["> 100 µM", "> 100 µM"]
